# Test system: A549
# Method notes: Selectivity index, ratio of IC50 for human HS68 cells to IC50 for human A549 cells
# Type: functional
Assignment: determine reported Ratio IC50 for the given compounds.

What value of Ratio IC50 has been recorded for this entry: CC(C)c1c(C(=O)Nc2ccccc2)c(-c2ccccc2)c(-c2ccc(F)cc2)n1CC[C@@H](O)C[C@@H](O)CC(=O)NO >5.7

Input CCC(C)(C)C(=O)O[C@H]1C[C@@H](C)C=C2C=C[C@H](C)[C@H](CC[C@@H](O)C[C@@H](O)CC(=O)NO)[C@H]21 >5

Input CCC(C)(C)C(=O)O[C@H]1C[C@@H](C)C=C2C=C[C@H](C)[C@H](CC[C@@H]3C[C@@H](O)CC(=O)O3)[C@H]21 1.6

Input CC[C@H](C)C(=O)O[C@H]1C[C@@H](C)C=C2C=C[C@H](C)[C@H](CC[C@@H](O)C[C@@H](O)CC(=O)NO)[C@H]21 >5.6
